Each recorded value in this set is attributed to patent US6492329B1.

Tested on: leukemia P388 cells
Assay: Leukemia P388 in mice: ascitic fluid and survival (Example 14)
Settings: leukemia P388; number of injection 7
Consider the following molecules; for each one, report its Accumulation of ascitic (weight gain, %).
Answers are plain numbers, in %.

Worked set:
{"molecule": "NCCSSCCN [0.1% cystamine, 2,2′-Dithio-bis[ethylamine]]", "readoutKind": "Accumulation of ascitic (weight gain, %)", "reported": 18.8}
{"molecule": "O=c1[nH]cnc2c1ncn2[C@@H]1O[C@H](CO)[C@@H](O)[C@H]1O [0.1% inosine, hypoxanthine-9-D-ribofuranoside]", "readoutKind": "Accumulation of ascitic (weight gain, %)", "reported": 16.6}
{"molecule": "NCCSSCCNC(=O)CNC(=O)C(CSSCC(NC(=O)CCC(N)C(=O)O)C(=O)NCC(=O)O)NC(=O)CCC(N)C(=O)O (centres unmarked)", "readoutKind": "Accumulation of ascitic (weight gain, %)", "reported": 8.2}
{"molecule": "C[S+](C)[O-]", "readoutKind": "Accumulation of ascitic (weight gain, %)", "reported": 19.6}

The record that follows has no Accumulation of ascitic (weight gain, %) shown yet.
Prompt: Please supply the value of reported Accumulation of ascitic (weight gain, %) for the item OO [0.003% H2O2, hydrogen peroxide]
Completion: 19.0

====

Tested on: Erlich adenocarcinoma cells
Experiment: Erlich adenocarcinoma in mice: ascitic fluid and survival (Example 14)
Details: Erlich adenocarcinoma; number of injection 3
Please mark Met if the recorded Accumulation of ascitic (weight gain, %) is equal to or greater than 10%, and Not met if it falls below.

{"compound": "NCCSSCCNC(=O)CNC(=O)C(CSSCC(NC(=O)CCC(N)C(=O)O)C(=O)NCC(=O)O)NC(=O)CCC(N)C(=O)O (centres unmarked)", "className": "Not met"}
{"compound": "NCCSSCCN [0.1% cystamine, 2,2′-Dithio-bis[ethylamine]]", "className": "Not met"}
{"compound": "O=c1[nH]cnc2c1ncn2[C@@H]1O[C@H](CO)[C@@H](O)[C@H]1O [0.1% inosine, hypoxanthine-9-D-ribofuranoside]", "className": "Met"}
{"compound": "C[S+](C)[O-]", "className": "Met"}

Prompt: Identify whether the reported Accumulation of ascitic (weight gain, %) of the following compound is 10% or greater: OO [0.003% H2O2, hydrogen peroxide]
Completion: Met

====

Tested on: e-ras cells after UV-irradiation
Experiment: Number of clones of e-ras cells after UV-irradiation
Type: cell-based, rat
Conditions: 72 hours
Please mark T if the recorded number of clones of e-ras cells after UV-irradiation (M ± m) is equal to or greater than 90, and F if it falls below.

Field: example entries. Status: answers known.
{"molecule": "NCCSSCCNC(=O)CNC(=O)C(CSSCC(NC(=O)CCC(N)C(=O)O)C(=O)NCC(=O)O)NC(=O)CCC(N)C(=O)O (centres unmarked)", "className": "F"}
{"molecule": "O=c1[nH]cnc2c1ncn2[C@@H]1O[C@H](CO)[C@@H](O)[C@H]1O [0.1% inosine, hypoxanthine-9-D-ribofuranoside]", "className": "T"}
{"molecule": "OO [0.003% H2O2, hydrogen peroxide]", "className": "F"}
{"molecule": "NCCSSCCN [0.1% cystamine, 2,2′-Dithio-bis[ethylamine]]", "className": "T"}

Continue with the molecule presented below.
Prompt: Identify whether the reported number of clones of e-ras cells after UV-irradiation (M ± m) of the following molecule is 90 or greater: C[S+](C)[O-]
Completion: T
